# %Inh annotations
Tested on: PLK2
Conditions: concentration: 1 μM,replicates: in singlicate; n = 1;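 also: KINOMEscan kinase panel screen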
Just the number plus its unit, please.

Examples from the recorded data:
INSERT INTO results (compound, result) VALUES
  ('C[C@@H](Oc1cc(-n2cnc3ccc(-c4ccncc4)cc32)sc1C(N)=O)c1ccccc1Cl', '99.3%'),
  ('Cc1nnc(-c2ccc3occ(-c4ccc(S(C)=O)cc4)c3n2)o1 (centres unmarked)', '0%'),
  ('Cc1ccc(C(=O)Nc2ccc(Oc3ccc4nc(NC(=O)C5CC5)cn4c3)c(F)c2)c(=O)n1-c1ccccc1', '0%');

Q: Give the measured %Inh of CCN1CCN(CCCC(=O)Nc2n[nH]c3nc(-c4ccc(O)cc4)c(Br)cc23)CC1 .
Result: 0%

Q: Give the measured %Inh of Cl.Nc1n[nH]c2cc(-c3ccccn3)ccc12 .
Result: 0%

Q: Give the measured %Inh of COc1cccc(C2=C(Nc3cccc(Cl)c3)C(=O)NC2=O)c1 .
Result: 0%

Q: Give the measured %Inh of CSc1nccc(-c2c(-c3ccc(F)cc3)ncn2CCCN2CCOCC2)n1.Cl .
Result: 28%

Q: Give the measured %Inh of CC(C)c1nc(-c2cccc(NS(=O)(=O)c3ccccc3)c2)c(-c2ccnc(Nc3ccc4c(c3)CN(C)CC4)n2)s1 .
Result: 0%

---

# %Inh annotations
System: INSR
Details: concentration: 1 μM,replicates: in singlicate; n = 1
I only need the number, in %, no unit after it.

Examples from the recorded data:
INSERT INTO assay_data (compound, quantitative_result) VALUES
  ('Cc1cccc(-c2nc(Nc3ccncc3)c3sccc3n2)n1', 31),
  ('N#Cc1cccc(C(=O)NC2CCN(c3ccnc(Nc4ccc(F)cc4)n3)C2)c1 (centres unmarked)', 4),
  ('CCOC(=O)N1CCC(n2cnc(-c3ccc(F)cc3)c2-c2ccnc(N)n2)CC1', 0),
  ('O=C(Nc1cccc(Oc2ccc3nccn3n2)c1)Nc1cccc(C(F)(F)F)c1', 0);

Q: Give the measured %Inh of COc1ccc(Nc2nccc(N3CCC(NC(=O)c4cccc(C#N)c4)C3)n2)cc1 (centres unmarked) .
Result: 0

---

Test system: STK35
Details: concentration: 1 μM,replicates: in singlicate; n = 1
# %Inh annotations
I only need the number, in %, no unit after it.

Examples from the recorded data:
INSERT INTO measurements (compound, quantitative_result) VALUES
  ('CN(c1cccc(CNc2nc(Nc3ccc4c(c3)CC(=O)N4)ncc2C(F)(F)F)c1)S(C)(=O)=O', 8),
  ('C[C@@H](Oc1cc(-n2cnc3cc(-c4cnn(C)c4)ccc32)sc1C(N)=O)c1ccccc1Cl [GSK580432]', 3),
  ('c1ccc(Oc2ccc(Nc3ccnc4ccc(-c5ccccn5)cc34)cc2)cc1 [GW407034]', 31);

Q: Give the measured %Inh of Cc1nnc(-c2ccc3occ(-c4ccc(S(C)=O)cc4)c3n2)o1 (centres unmarked) .
Result: 45

Q: Give the measured %Inh of Nc1nccc(-c2ccc3c(N)n[nH]c3c2)n1 [GSK1034945] .
Result: 0

Q: Give the measured %Inh of Cc1n[nH]c2cc(Nc3ccnc(Nc4cccc(CN5CCOCC5)c4)n3)ccc12 [GW682569] .
Result: 0

Q: Give the measured %Inh of CCN1CCN(CCCC(=O)Nc2n[nH]c3nc(-c4ccc(O)cc4)c(Br)cc23)CC1 [SB-731579] .
Result: 0

Q: Give the measured %Inh of Cc1ccc(C(=O)Nc2ccc(Oc3ccc4nc(NC(=O)C5CC5)cn4c3)c(F)c2)c(=O)n1-c1ccccc1 .
Result: 0
